Target: Albumin (Bos taurus)
Experiment: bovine serum albumin binders on microarray, profiling panel, artefact control for SMM control protein annotation, biochemical, small-molecule microarray, Alexa647 label, 635/667 nm fluorescence (AID 1118);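 further: score merges 667 nm emission intensity and signal-to-noise per printed compound spot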
Conditions: BSA-A647 binding, fluorescence 635 nm, higher = more signal
Would you please tag the item condition met when its composite z-score is 0.4 or above, and condition not met when it is below?

- compound: "C=CCOC(=O)[C@@H]1[C@H]2C(=O)O[C@H](c3ccccc3)[C@H](c3ccccc3)N2[C@H](c2ccc(OCCOC(=O)[C@@H]3C[C@@H]4C(=O)N[C@@H](Cc5ccccc5)C(=O)N4[C@@H]3c3ccc(O)cc3)cc2)[C@@]12C(=O)Nc1ccc(I)cc12"
  category-label: "condition not met"
- compound: "O=C1OCC=C[C@H]2OC34C=CCN(CCN5CCOCC5)C(=O)[C@H]3N(CCCO)C(=O)[C@@H]4[C@@H]12 (stereo not given in full)"
  category-label: "condition met"
- compound: "COC(=O)[C@@]1(Cc2ccccc2)[C@H]2c3cc(C(=O)N4CCCC4)n(Cc4cccc5ccccc45)c3C[C@H]2CN1C(=O)c1ccccc1"
  category-label: "condition met"
- compound: "COCCOC(=O)N1C(=O)[C@@]2(c3cc(C#Cc4ccc(OC)cc4)ccc31)[C@H](c1ccc(O)cc1)N1[C@H](c3ccccc3)[C@H](c3ccccc3)OC(=O)[C@H]1[C@@H]2C(=O)NC[C@H](O)c1ccccc1"
  category-label: "condition not met"
- compound: "C=CCNC(=O)[C@H]1[C@@H]2C(=O)O[C@@H](c3ccccc3)[C@@H](c3ccccc3)N2[C@@H](c2ccc(O)cc2)[C@]12C(=O)N(C(=O)OCCOC)c1ccc(C#CCNC(N)=O)cc12"
  category-label: "condition not met"
- compound: "CN1C(=O)C2C=CC(C(O)c3ccc(-c4ccccc4)s3)N(N(c3ccccc3)c3ccccc3)C2C1=O (stereo not given)"
  category-label: "condition met"
- compound: "COCCOC(=O)N1C(=O)[C@@]2(c3cc(C#CCCO)ccc31)[C@H](C(=O)N1CCc3cc(OC)c(OC)cc3C1)[C@H]1C(=O)O[C@H](c3ccccc3)[C@H](c3ccccc3)N1[C@@H]2c1ccc(O)cc1"
  category-label: "condition not met"
- compound: "COCCOC(=O)N1C(=O)[C@@]2(c3cc(C#CCCO)ccc31)[C@H](C(=O)N1CCN(c3ncccn3)CC1)[C@H]1C(=O)O[C@H](c3ccccc3)[C@H](c3ccccc3)N1[C@@H]2c1ccccc1OCCO"
  category-label: "condition met"
- compound: "CS(=O)(=O)CCOC(=O)C1=CC(CCCO)=CC(c2ccc(CN3CCCC3)cc2)N(Cc2cc3c(cc2Br)OCO3)C=C1C(=O)OCCS(C)(=O)=O (stereo not given)"
  category-label: "condition met"
- compound: "C=CCN1C(=O)[C@]2(O[C@H](CCO)[C@@H]([Si](C)(C)c3ccc(OC)cc3)[C@@H]2C)c2cc(N3C(=O)c4cccc5cccc3c45)ccc21"
  category-label: "condition met"
- compound: "CN1C(=O)C2C=CC(C(O)C3=C[C@H]4C[C@@H](C3)C4(C)C)N(Nc3ccccc3)C2C1=O (stereo not given in full)"
  category-label: "condition met"
- compound: "Cc1ccc(S[C@]2(C(=O)NCCN3CCOCC3)CC(=O)N(Cc3ccccc3Cl)[C@@H]2c2ccc(CO)cc2)cc1"
  category-label: "condition met"
- compound: "CCOC(=O)C[C@H]1[C@H](OC(=O)Cc2ccc3c(c2)OCO3)[C@@H](NC(=O)c2ccc(-c3ccccc3)cc2)c2cc(OCCCO)ccc2N1C(=O)Cc1ccc(OC)cc1"
  category-label: "condition met"
- compound: "COc1cc2c(cc1OC)CN(C(=O)[C@H]1[C@@H]3C(=O)O[C@@H](c4ccccc4)[C@@H](c4ccccc4)N3[C@@H](c3ccc(O)cc3)[C@]13C(=O)Nc1ccc(C#CC4=CCCCC4)cc13)CC2"
  category-label: "condition met"
- compound: "COc1cc(CO)cc(I)c1O[C@H]1C=C(C(=O)NCCO)C[C@@H](N(CCN2CCOCC2)C(=O)C2CCOC2)[C@@H]1O (stereo not given in full)"
  category-label: "condition not met"
- compound: "COCCOC(=O)N1C(=O)[C@@]2(c3cc(C#CCNC(N)=O)ccc31)[C@H](C(=O)NC[C@H](O)c1ccccc1)[C@H]1C(=O)O[C@H](c3ccccc3)[C@H](c3ccccc3)N1[C@@H]2c1ccccc1OCCO"
  category-label: "condition met"
- compound: "CC(C)(C)OC(=O)CC[C@@]12N=C(c3ccc(OCCCO)cc3)O[C@@H]1c1ccccc1N(CCS(=O)(=O)c1ccccc1)C2=O"
  category-label: "condition not met"
- compound: "O=C1O[C@H](c2ccccc2)[C@H](c2ccccc2)N2[C@H]1[C@@H](C(=O)Nc1nc3ccccc3s1)[C@]1(C(=O)Nc3ccc(C#CCCO)cc31)[C@H]2c1ccc(OCCO)cc1"
  category-label: "condition met"
- compound: "COCCOC(=O)N1C(=O)[C@@]2(c3cc(C#Cc4ccc(OC)cc4)ccc31)[C@H](C(=O)N1CCCCCCC1)[C@H]1C(=O)O[C@H](c3ccccc3)[C@H](c3ccccc3)N1[C@@H]2c1ccc(OCCO)cc1"
  category-label: "condition not met"
- compound: "COc1ccc(NN2C(C(O)c3ccc([N+](=O)[O-])cc3)C=CC3C(=O)N(C4CCCCC4)C(=O)C32)cc1 (stereo not given)"
  category-label: "condition met"
- compound: "CCOC(=O)C=Cc1cc([N+](=O)[O-])ccc1O"
  category-label: "condition not met"
- compound: "Cc1ccc(S[C@]2(C(=O)NC3CC3)CC(=O)N(C3Cc4ccccc4C3)[C@@H]2c2ccc(CO)cc2)cc1"
  category-label: "condition met"
- compound: "COc1ccc(CCN2C(=O)[C@@]3(c4ccc([N+](=O)[O-])cc4)CC(=O)N(C4CCCCC4)[C@@H]3c3ccc(CO)cc32)cc1"
  category-label: "condition not met"
- compound: "CN1C2C=C(CCCO)C(C3C(=O)N(C(N)=O)C(=O)C32)C1c1ccc(CN2CCCC2)cc1 (stereo not given)"
  category-label: "condition not met"
- compound: "CC(C)C(=C=CC[C@@H](O)c1ccccc1OCCO)CCO"
  category-label: "condition not met"
